# System: HMOX1
# EXPERIMENT SUMMARY: HMOX1 Protein Assay (immunostaining of HO-1 in NHLF cells, GE InCell 1000)
# Assay type: cell-based
# EXPERIMENTAL CONDITIONS: Homo sapiens, fold change above DMSO treated cells, 5 μM compound, 16 h
# Protocol: Cell Culture. Normal Human Fibroblast (NHLF), were obtained from Lonza. Cultures of cells were maintained in Fibroblast Growth Medium (FGM-2) medium supplemented with 2% fetal bovine serum (FBS), Fibroblast Growth Factor (hFGF-B) 0.5 mL, Insulin 0.5 mL, gentamicin/amphotericin-B 0.5 mL at 37° C. in a humidified atmosphere of 5% CO2. […] HMOX1 Protein Assay. […] Plate was washed 5× with 1×PBS and read at Hoechst Ex.360 Em. […] Results analyzed using GE InCell Analyzer software. […]
Where a name gives a salt, the structure may show the parent alone.
Consider the following compounds; for each one, report its fold induction at 5 µM.
Reply briefly: the number, and no unit.

Test item `CCN(CC)c1cc2c(cc1C(=O)OC)nc(Nc1nc3ccc(OC(F)(F)F)cc3s1)n2C` ; HMOX1; reported fold induction at 5 µM was 4.7

Test item CN1CCCCC1CNC(=O)c1ccc2c(c1)nc(Nc1nc3ccc(Cl)cc3s1)n2C (stereo not shown) ; HMOX1; reported fold induction at 5 µM was 11.9

Test item `Cn1c(Nc2nc3ccc(OC(F)(F)F)cc3s2)nc2cc(C(=O)NCCCC(C)(C)CO)ccc21` ; HMOX1; reported fold induction at 5 µM was 14.4

Test item Cn1c(Nc2nc3ccc(Cl)cc3s2)nc2cc(C(=O)NCC(=O)N3CCC(O)C3)ccc21 (stereo not shown) ; HMOX1; reported fold induction at 5 µM was 20.8

Test item `Cn1c(Nc2nc3ccc(OC(F)(F)F)cc3s2)nc2cc(C(=O)NC[C@H]3CC[C@H](CO)CC3)ccc21` ; HMOX1; reported fold induction at 5 µM was 47.4

Test item `COCCn1c(Nc2nc3ccc(Cl)cc3s2)nc2cc(C(=O)NCC(=O)N3CCC(CO)CC3)ccc21` ; HMOX1; reported fold induction at 5 µM was 39.8

Test item `Cn1c(Nc2nc3ccc(S(C)(=O)=O)cc3s2)nc2cc(C(=O)NCCS(C)(=O)=O)ccc21` ; HMOX1; reported fold induction at 5 µM was 6.8

Test item `COCCNC(=O)c1cc2nc(Nc3nc4ccc(OC(F)(F)F)cc4s3)n(C)c2cc1OC` ; HMOX1; reported fold induction at 5 µM was 18.7

Test item `COC(=O)c1cc2nc(Nc3nc4ccc(OC(F)(F)F)cc4s3)n(C)c2cc1OC` ; HMOX1; reported fold induction at 5 µM was 12.1

Test item `COCCn1c(Nc2nc3ccc(Cl)cc3s2)nc2cc(C(=O)NCCN3CCNC(=O)C3)ccc21` ; HMOX1; reported fold induction at 5 µM was 55.9

Test item CN[C@H]1CCN(C(=O)CNC(=O)c2ccc3c(c2)nc(Nc2nc4ccc(OC(F)(F)F)cc4s2)n3C)C1 [Example 414, hydrochloride] ; HMOX1; reported fold induction at 5 µM was 25.7

Test item `CCNC(=O)c1ccc2c(c1)nc(Nc1nc3ccc(Cl)cc3s1)n2CC` ; HMOX1; reported fold induction at 5 µM was 28.7

Test item CNCCn1c(Nc2nc3ccc(Cl)cc3s2)nc2cc(C(=O)NCCOCCO)ccc21 [Example 240, hydrochloride] ; HMOX1; reported fold induction at 5 µM was 35.4

Test item `CCOCCNC(=O)c1cc2nc(Nc3nc4ccc(OC(F)(F)F)cc4s3)n(C)c2cc1F` ; HMOX1; reported fold induction at 5 µM was 32

Test item `Cn1c(Nc2nc3ccc(OC(F)(F)F)cc3s2)nc2cc(S(C)(=O)=O)ccc21` ; HMOX1; reported fold induction at 5 µM was 26.5

Test item `CNC(=O)c1ccc2c(c1)nc(Nc1nc3ccc(OC(F)(F)F)cc3s1)n2CCOC` ; HMOX1; reported fold induction at 5 µM was 24.2
